# Tested on: Leishmania donovani
# assay method text: In vitro inhibitory activity against Leishmania donovani (PP75)
# Type: functional, organism-based
Some compounds, each annotated with its measured IC50.

{"columns": ["compound", "IC50"],
 "data": [
  ["O=c1[nH]nc(Cc2ccccc2)c2ccccc12", "≥ 100 µg/mL"],
  ["Oc1nnc(Cc2ccc3c(c2)OCO3)c2ccccc12", "≥ 100 µg/mL"],
  ["O=C(Cc1ccccc1)c1ccccc1C(=O)N1CCCCC1", "≥ 100 µg/mL"],
  ["COc1ccc(Cc2nnc(O)c3ccccc23)cc1", "≥ 100 µg/mL"],
  ["COc1ccc(CC2(O)c3ccccc3C3=NCCN32)cc1OC (configuration not stated)", "≥ 100 µg/mL"],
  ["COc1ccc(CCc2cc(OC(C)=O)cc(OC)c2C(=O)O)cc1", "62 µg/mL"],
  ["COc1cc(Cc2nnc(O)c3ccccc23)cc(OC)c1OC", "≥ 100 µg/mL"],
  ["COc1ccc(C(=O)C(=O)c2ccccc2C(=O)N2CCCC2)cc1", "≥ 100 µg/mL"]
]}

Give IC50 for the following compound: `COc1cc(CC(=O)c2ccccc2C(=O)N2CCCCC2)cc(OC)c1OC` 20 µg/mL

Give IC50 for the following compound: COc1ccc(CC2(O)c3ccccc3C(=O)N2NC(C)(C)C)cc1 (configuration not stated) ≥ 100 µg/mL

Give IC50 for the following compound: COc1cc(CC2(O)c3ccccc3C3=NCCN32)cc(OC)c1OC (configuration not stated) ≥ 100 µg/mL

Give IC50 for the following compound: OC1(Cc2ccc(Cl)cc2)c2ccccc2C2=NCCCN21 (configuration not stated) ≥ 100 µg/mL

All values here come from ChEMBL document CHEMBL1133906.
